# System Under Test: human AspH (His6-AspH315–758) (Homo sapiens, UniProt Q12797)
# Construct: N-Terminally His6-tagged human AspH315–758 (His6-AspH315–758) was produced in Escherichia coli BL21 (DE3) cells; made in house; host or cells: Escherichia coli BL21 (DE3), pET-28a(+) vector
# Sequence (Q12797 315-758): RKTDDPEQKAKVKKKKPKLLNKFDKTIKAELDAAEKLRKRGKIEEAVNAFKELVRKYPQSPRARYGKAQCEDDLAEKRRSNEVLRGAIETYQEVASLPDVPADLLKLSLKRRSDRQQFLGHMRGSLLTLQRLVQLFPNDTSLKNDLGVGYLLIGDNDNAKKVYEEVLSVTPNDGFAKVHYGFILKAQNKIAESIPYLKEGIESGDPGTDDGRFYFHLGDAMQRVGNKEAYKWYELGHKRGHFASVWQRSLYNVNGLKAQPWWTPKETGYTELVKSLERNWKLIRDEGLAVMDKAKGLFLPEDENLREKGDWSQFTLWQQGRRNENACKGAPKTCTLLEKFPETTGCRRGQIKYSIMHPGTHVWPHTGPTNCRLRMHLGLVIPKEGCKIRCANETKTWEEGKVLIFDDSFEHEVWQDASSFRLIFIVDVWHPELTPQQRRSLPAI
# Assay Comment: SPE-MS AspH inhibition assay (hFX-CP101-119 substrate hydroxylation)
# Type: biochemical
# Run Conditions: AspH-inhibitor screening, 384-well Plate 1, substrate conversion
Starred links: 1 amine or outer side, 2 acyl side, 3 side chain; linkers in the order of their positions; H or OH if unused. Positions of bridges follow the written chain, without caps; N, C: chain ends. Non-standard residues stand in square brackets, D forms with d. Residues, ends and D or L forms follow the SMILES beside them. Chains are numbered I, II in the order given. Actinocin(9to1) = Cc1c2oc3c(C)ccc(C(=O)[*:1])c3nc-2c(C(=O)[*:2])c(N)c1=O; NMeV = CN[C@H](C(=O)O)C(C)C; Sar = CNCC(=O)O
Measured Endpoint: Plate 1 (% conversion) (%)
Note: unit % is implicit; provide only the numeric part.

Here's what some known entries look like.
Molecule: Cc1ccc(Nc2nccc(N(C)c3ccc4c(C)n(C)nc4c3)n2)cc1S(N)(=O)=O
Plate 1 (% conversion) / %: 47.82
--
Molecule: CO[C@@]12[C@H](COC(N)=O)C3=C(C(=O)C(C)=C(N)C3=O)N1C[C@@H]1N[C@@H]12
Plate 1 (% conversion) / %: 49.02
--
Molecule: Cc1c2oc3c(C)ccc(C(=O)N[C@@H]4C(=O)N[C@H](C(C)C)C(=O)N5CCC[C@H]5C(=O)N(C)CC(=O)N(C)[C@@H](C(C)C)C(=O)O[C@@H]4C)c3nc-2c(C(=O)N[C@@H]2C(=O)N[C@H](C(C)C)C(=O)N3CCC[C@H]3C(=O)N(C)CC(=O)N(C)[C@@H](C(C)C)C(=O)O[C@@H]2C)c(N)c1=O [Dactinomycin] (I: T[dV]P[Sar][NMeV] / II: T[dV]P[Sar][NMeV]; ester I:1-I:C, II:1-II:C; linker I:N-II:N via Actinocin(9to1))
Plate 1 (% conversion) / %: 49.78
--
Molecule: COc1cc2ncnc(Nc3ccc(F)c(Cl)c3)c2cc1NC(=O)/C=C/CN1CCCCC1.O [Dacomitinib (monohydrate) (PF-00299804)]
Plate 1 (% conversion) / %: 81.33
--
Molecule: C=CC[C@@H]1/C=C(\C)C[C@H](C)C[C@H](OC)[C@H]2O[C@@](O)(C(=O)C(=O)N3CCCC[C@H]3C(=O)O[C@H](/C(C)=C/[C@@H]3CC[C@@H](O)[C@H](OC)C3)[C@H](C)[C@@H](O)CC1=O)[C@H](C)C[C@@H]2OC.O
Plate 1 (% conversion) / %: 50.78

In: Field request: Plate 1 (% conversion) | item: CC(=O)c1c(C)c2cnc(Nc3ccc(N4CCNCC4)cn3)nc2n(C2CCCC2)c1=O [Palbociclib]
Out: 43.50

In: Field request: Plate 1 (% conversion) | item: COc1cc2c(N3CCN(C(=O)Nc4ccc(OC(C)C)cc4)CC3)ncnc2cc1OCCCN1CCCCC1
Out: 55.16

* * *

# System Under Test: human AspH (His6-AspH315–758) (Homo sapiens)
# Construct: N-Terminally His6-tagged human AspH315–758 (His6-AspH315–758) was produced in Escherichia coli BL21 (DE3) cells; made in house; host or cells: Escherichia coli BL21 (DE3), pET-28a(+) vector
# Assay Comment: SPE-MS AspH inhibition assay (hFX-CP101-119 substrate hydroxylation)
# Format: biochemical
# Run Conditions: AspH-inhibitor screening, 384-well Plate 1, substrate conversion
Measured Endpoint: Plate 1 (% conversion) (%)
Note: unit % is implicit; provide only the numeric part.

Molecule: CCc1c2c(nc3ccc(OC(=O)N4CCC(N5CCCCC5)CC4)cc13)-c1cc3c(c(=O)n1C2)COC(=O)[C@]3(O)CC.Cl [Irinotecan hydrochloride]
Uom: %
Value Observed: 50.43

In: Field request: Plate 1 (% conversion) | item: O=C(O)CCCCC(CCSCc1ccccc1)SCc1ccccc1 (stereo not shown)
Out: 50.79

In: Field request: Plate 1 (% conversion) | item: C=CC(=O)Nc1cc(Nc2nccc(-c3cn(C)c4ccccc34)n2)c(OC)cc1N(C)CCN(C)C
Out: 34.05

In: Field request: Plate 1 (% conversion) | item: CC[C@H](CC#N)OC(=O)N[C@@H](C)c1cccc(NC(=O)Nc2ccc(-c3cnco3)c(OC)c2)c1
Out: 53.00

In: Field request: Plate 1 (% conversion) | item: Cc1cccc(-c2nn3c(c2-c2ccnc4ccc(C(N)=O)cc24)CCC3)n1
Out: 47.36

In: Field request: Plate 1 (% conversion) | item: CC(=O)Oc1ccccc1C(=O)O
Out: 46.01

* * *

In this section we review reported Plate 1 (% conversion) values for a set of compounds.
# System Under Test: human AspH (His6-AspH315–758) (Homo sapiens, UniProt Q12797)
# Construct: N-Terminally His6-tagged human AspH315–758 (His6-AspH315–758) was produced in Escherichia coli BL21 (DE3) cells; made in house; host or cells: Escherichia coli BL21 (DE3), pET-28a(+) vector
# Assay Comment: SPE-MS AspH inhibition assay (hFX-CP101-119 substrate hydroxylation)
# Assay type: biochemical
# Run Conditions: AspH-inhibitor screening, 384-well Plate 1, substrate conversion
Counter-ions that a name gives are not always drawn.
Note: unit % is implicit; provide only the numeric part.

Compound: CC(C)n1cnc2c(NCCc3ccc(O)cc3)nc(-c3csc4ccccc34)nc21.Cl [SR1 HCl]
Plate 1 (% conversion) (%): 34.49
--
Compound: CNNCc1ccc(C(=O)NC(C)C)cc1 [Procarbazine hydrochloride]
Plate 1 (% conversion) (%): 49.64
--
Compound: COc1nc(N)nc2c1ncn2[C@@H]1O[C@H](CO)[C@@H](O)[C@@H]1O
Plate 1 (% conversion) (%): 50.31
--
Compound: CC1(C)CCC(CN2CCN(c3ccc(C(=O)NS(=O)(=O)c4ccc(NCC5CCOCC5)c([N+](=O)[O-])c4)c(Oc4cnc5[nH]ccc5c4)c3)CC2)=C(c2ccc(Cl)cc2)C1 [Venetoclax, reference compound]
Plate 1 (% conversion) (%): 4.94
--
Compound: COc1cc2c(Oc3ccc(NC(=O)C4(C(=O)Nc5ccc(F)cc5)CC4)cc3F)ccnc2cc1OCCCN1CCOCC1
Plate 1 (% conversion) (%): 79.57

Please look at the following compound next.
In: Field request: Plate 1 (% conversion) | item: CN(C)C[C@@H]1CCn2cc(c3ccccc32)C2=C(C(=O)NC2=O)c2cn(c3ccccc23)CCO1.CS(=O)(=O)O
Out: 44.93

* * *

# System Under Test: human AspH (His6-AspH315–758) (Homo sapiens, UniProt Q12797)
# Construct: N-Terminally His6-tagged human AspH315–758 (His6-AspH315–758) was produced in Escherichia coli BL21 (DE3) cells; made in house; host or cells: Escherichia coli BL21 (DE3), pET-28a(+) vector
# Sequence (Q12797 315-758): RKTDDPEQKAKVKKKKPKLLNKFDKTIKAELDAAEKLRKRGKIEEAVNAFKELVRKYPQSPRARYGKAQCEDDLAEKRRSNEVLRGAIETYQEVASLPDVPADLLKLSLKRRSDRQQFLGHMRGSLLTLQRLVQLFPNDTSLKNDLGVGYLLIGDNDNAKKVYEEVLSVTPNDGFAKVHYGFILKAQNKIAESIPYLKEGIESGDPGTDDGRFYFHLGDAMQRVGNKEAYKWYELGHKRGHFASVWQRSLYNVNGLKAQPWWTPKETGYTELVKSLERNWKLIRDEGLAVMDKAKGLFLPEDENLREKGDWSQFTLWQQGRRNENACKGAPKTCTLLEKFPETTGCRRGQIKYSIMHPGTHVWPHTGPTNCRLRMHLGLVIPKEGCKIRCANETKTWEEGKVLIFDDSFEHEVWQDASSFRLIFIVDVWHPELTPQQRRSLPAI
# Assay Comment: SPE-MS AspH inhibition assay (hFX-CP101-119 substrate hydroxylation)
# Format: biochemical
# Run Conditions: 20 μM fixed inhibitor; 50 nM His6-AspH315–758, 1 μM hFX-CP101–119, 100 μM LAA, 3 μM 2OG, 2 μM FAS, 50 mM HEPES pH 7.5, 20 °C; relative to DMSO and 2,4-PDCA controls
Measured Endpoint: inhibition at 20 µM (%)
Note: unit % is implicit; provide only the numeric part.

Compound: Cc1cc2c(C(C)C)c(O)c(O)c(C=O)c2c(O)c1-c1c(C)cc2c(C(C)C)c(O)c(O)c(C=O)c2c1O [(R)-Gossypol, reference compound]
System Under Test: human AspH (His6-AspH315–758) (Homo sapiens, UniProt Q12797)
inhibition at 20 µM, %: 101
//
Compound: CC1(C)CCC(CN2CCN(c3ccc(C(=O)NS(=O)(=O)c4ccc(NCC5CCOCC5)c([N+](=O)[O-])c4)c(Oc4cnc5[nH]ccc5c4)c3)CC2)=C(c2ccc(Cl)cc2)C1 [Venetoclax, reference compound]
System Under Test: human AspH (His6-AspH315–758) (Homo sapiens, UniProt Q12797)
inhibition at 20 µM, %: 97.2
//
Compound: CC1(C)CCC(c2ccc(Cl)cc2)=C(CN2CCN(c3ccc(C(=O)NS(=O)(=O)c4ccc(N[C@H](CCN5CCOCC5)CSc5ccccc5)c(S(=O)(=O)C(F)(F)F)c4)cc3)CC2)C1 [Navitoclax, reference compound]
System Under Test: human AspH (His6-AspH315–758) (Homo sapiens, UniProt Q12797)
inhibition at 20 µM, %: 90.1

Please look at the following compound next.
In: Field request: inhibition at 20 µM | item: O=C(O)c1ccnc(C(=O)O)c1 [2,4-PDCA, Pyridine-2,4-dicarboxylic acid, reference compound]
Out: 100
